Give measured MIC C. diversus for each item. Keep answers brief.
Test system: Citrobacter diversus
Assay: MIC against Gram-negative bacteria: Citrobacter diversus
Assay type: cell-based
Conditions: 10 h cultivation at 37° C., 5×10^5 CFU/mL, two-fold serial dilution
Numbers only, in µg/mL.

Record excerpt, results attached:
INSERT INTO results (substance, measured) VALUES
  ('PRT1055 (GADPCLYQNGGCEHICKKRLGTAWCSCREGFMKASDGKTCL; listed as Homo sapiens)', 25),
  ('PRT1154 (DGTACGYNTCRNGGECTVNGTTFSCRCLPDWAGNTCN; listed as Homo sapiens)', 12.5),
  ('PRT1057 (DIDECEMGVPVCPPASSKCINTEGGYVCRCSEGYQGDGIHCL; listed as Homo sapiens)', 25),
  ('PRT1081 (APNPCEANGGQGPCSHLCLINYNRTVSCACPHLMKLHKDNTTCY; listed as Homo sapiens)', 50),
  ('PRT1191 (AEHACTSNPCANGGSCHEVPSGFECHCPSGWSGPTCA; listed as Homo sapiens)', 12.5);

Kindly review the next substance as well.
Ask: MIC C. diversus for PRT1166 (DTPEGVRYISSNVCGPHGKCKSQSGGKFTCDCNKGFTGTYCH; listed as Homo sapiens) ?
Reply: 12.5

###

Tested on: Serratia marcescens
Assay: MIC against Gram-negative bacteria: Serratia marcescens
Type: cell-based
Conditions: Serratia marcescens; 96-well plate, 5×10^5 CFU/mL, 37° C., 10 h
Give measured MIC (μg/mL) S. marcescens for each item. Keep answers brief.
Numbers only, in µg/mL.

Record excerpt, results attached:
INSERT INTO assay_data (substance, measured) VALUES
  ('PRT100 (DVNECTSGQNPCHSSTHCLNNVGSYQCRCRPGWQPIPGSPNGPNNTVCE; listed as Homo sapiens)', 12.5),
  ('PRT121 (CGPCFNNGVPILEGTSCRCQCRLGSLGAACE; listed as Homo sapiens)', 25);

Ask: Record PRT23 (KKNPCNAEFQNFCIHGECKYIEHLEAVTCKCQQEYFGERCG; listed as Homo sapiens) : what is its MIC (μg/mL) S. marcescens with Serratia marcescens?
Reply: 50

###

Test system: Proteus mirabilis
Assay: MIC against Gram-negative bacteria: Proteus mirabilis
Assay type: cell-based
Details: P. mirabilis; 10 h cultivation at 37° C.; 5×10^5 CFU/mL
value_type: MIC (μg/mL) P. mirabilis (µg/mL)
Numbers only, in µg/mL.

Record excerpt, results attached:
INSERT INTO results (substance, value_type, measured) VALUES
  ('PRT744 (GWNECASSNGHCSHLCLAVPVGGFVCGCPAHYSLNADNRTCS; listed as Homo sapiens)', 'MIC (μg/mL) P. mirabilis', 25),
  ('PRT796 (SGDFCIPLCTEECVHGRCVSPDTCHCEPGWGGPDCS; listed as Homo sapiens)', 'MIC (μg/mL) P. mirabilis', 12.5),
  ('PRT762 (ALDPCVLGTHQCQHVCISDGEGKHHCECSQGYTLNADKKTCS; listed as Homo sapiens)', 'MIC (μg/mL) P. mirabilis', 50),
  ('PRT815 (YGPSCQTRCSCANDGHCHPATGHCSCAPGWTGFSCQ; listed as Homo sapiens)', 'MIC (μg/mL) P. mirabilis', 25);

Kindly review the next substance as well.
Ask: MIC (μg/mL) P. mirabilis for PRT879 (TLKQCASAPCRNGGVCREGWNRFICDCIGTGFLGRVCE; listed as Homo sapiens) ?
Reply: 12.5

###

Test system: Citrobacter diversus
Experiment: MIC against Gram-negative bacteria: Citrobacter diversus
Type: cell-based
Conditions: C. diversus; 10 h cultivation at 37° C.; 5×10^5 CFU/mL
Give measured MIC (μg/mL) C. diversus for each item. Keep answers brief.
Answer with the number, then the unit.

Record excerpt, results attached:
INSERT INTO results (substance, tested_system, measured) VALUES
  ('PRT149 (LSNICLSHPCLNGQCIDTVSGYFCKCDSGWTGVNCT; listed as Homo sapiens)', 'Citrobacter diversus', '12.5 µg/mL'),
  ('PRT251 (FSHLCLEDHNSYCINGACAFHHELEKAICRCFTGYTGERCE; listed as Homo sapiens)', 'Citrobacter diversus', '25 µg/mL');

Each of the following entries comes with a recorded value; kindly state MIC (μg/mL) C. diversus for each.
1. PRT215 (YTQCTDGYEWDPVRQQCKDIDECDIVPDACKGGMKCVNHYGGYLCL; listed as Homo sapiens)
2. PRT787 (RQICDCLNNSTCDHITGTCYCSPGWKGARCD; listed as Homo sapiens)

Reply:
25 µg/mL
25 µg/mL

Each of the following entries comes with a recorded value; kindly state MIC (μg/mL) C. diversus for each.
1. PRT771 (VQDLCSKTTCKNDGVCTVRDGKAECRCQSGEDWWYMGERCE; listed as Homo sapiens)
2. PRT179 (RVDRCSLQPCRNGGLCLDLGHALRCRCRAGFAGPRCE; listed as Homo sapiens)
3. PRT144 (DKKVCSSNPCQNGGTCLNLHDSFFCICPPQWKGPLCS; listed as Homo sapiens)
4. PRT840 (GSARCGSGGPGSCPVPQECVPQDGAAGAGLCRCPQGWAGPHCR; listed as Homo sapiens)
5. PRT766 (GKDQCAEGGHGCQHQCVNAWAMFHCTCNPGYKLAADNKSCL; listed as Homo sapiens)
6. PRT161 (KVDPCASSPCQNNGTCYVDGVHFTCNCSPGFTGPTCA; listed as Homo sapiens)
7. PRT837 (RFSLCPGGCQSHGQCQPPGVCACEPGWGGPD; listed as Homo sapiens)
8. PRT846 (CNCSVVGSLNVNRCNQTTGQCECRPGYQGLHCETCKEGFYLNYTSGLCQP; listed as Homo sapiens)

Reply:
["50 µg/mL", "25 µg/mL", "25 µg/mL", "12.5 µg/mL", "12.5 µg/mL", "25 µg/mL", "12.5 µg/mL", "12.5 µg/mL"]

Each of the following entries comes with a recorded value; kindly state MIC (μg/mL) C. diversus for each.
1. PRT156 (DINECDSNPCHHGGSCLDQPNGYNCHCPHGWVGANCE; listed as Homo sapiens)
2. PRT808 (YGPNCSSICSCNNGGTCSPVDGSCTCKEGWQGLDCT; listed as Homo sapiens)
3. PRT225 (DIDECSYSSYLCQYRCINEPGRFSCHCPQGYQLLATRLCQ; listed as Homo sapiens)
4. PRT239 (SAGPCTPNPCHNGGTCEISEAYRGDTFIGYVCKCPRGFNGIHCQ; listed as Homo sapiens)
5. PRT789 (YGNDCHQRCQCQNGATCDHVTGECRCPPGYTGAFCE; listed as Homo sapiens)

Reply:
["12.5 µg/mL", "25 µg/mL", "25 µg/mL", "100 µg/mL", "25 µg/mL"]

Each of the following entries comes with a recorded value; kindly state MIC (μg/mL) C. diversus for each.
1. PRT260 (CRAGNGGCHGLATCRAVGGGQRVCTCPPGFGGDGFSC; listed as Homo sapiens)
2. PRT806 (FGFQCSQHCDCHNGGQCSPTTGACECEPGYKGPRCQ; listed as Homo sapiens)
3. PRT750 (DIDECQVAPGEAPTCDHHCHNHLGGFYCSCRAGYVLHRNKRTCS; listed as Homo sapiens)
4. PRT198 (CQPKTCNMRGICNNKQHCHCNHEWAPPYC; listed as Homo sapiens)
5. PRT791 (SQECQCHNGGTCDAATGQCHCSPGYTGERCQ; listed as Homo sapiens)
6. PRT209 (DVDECAQALHDCRPSQDCHNLPGSYQCTCPDGYR; listed as Homo sapiens)
7. PRT757 (RINYCALNKPGCEHECVNMEESYYCRCHRGYTLDPNGKTCS; listed as Homo sapiens)

Reply:
50 µg/mL
12.5 µg/mL
50 µg/mL
50 µg/mL
25 µg/mL
12.5 µg/mL
12.5 µg/mL

###

Test system: Moraxella catarrhalis
Assay: MIC against Gram-negative bacteria: Moraxella catarrhalis
Format: cell-based
Settings: M. catarrhalis; 10 h cultivation at 37° C.; 5×10^5 CFU/mL
Give measured MIC (μg/mL) M. catarrhalis for each item. Keep answers brief.
Numbers only, in µg/mL.

INSERT INTO measurements (substance, measured) VALUES
  ('PRT872 (CKCNLHANLCSMREGSLQCECEHNTTGPDCGKCKKNFRTRSWRAGSYLPLPHGSPNACAT; listed as Homo sapiens)', 50);

Each of the following entries comes with a recorded value; kindly state MIC (μg/mL) M. catarrhalis for each.
1. PRT753 (RKDVCKSTHHGCEHICVNNGNSYICKCSEGFVLAEDGRRCK; listed as Homo sapiens)
2. PRT145 (DVNECEIYSGTPLSCQNGGTCVNTMGSYSCHCPPETYGPQCA; listed as Homo sapiens)
3. PRT744 (GWNECASSNGHCSHLCLAVPVGGFVCGCPAHYSLNADNRTCS; listed as Homo sapiens)
4. PRT263 (CSKNNGGCSPYATCKSTGDGQRTCTCDTAHTVGDGLTC; listed as Homo sapiens)
5. PRT172 (CADGPCFNGGRCSDSPDGGYSCRCPVGYSGFNC; listed as Homo sapiens)
6. PRT214 (DDNECGNLTQSCGENANCTNTEGSYYCMCVPGFRSSSNQDRFITNDGTVCI; listed as Homo sapiens)
7. PRT843 (CQCNGHGDPRRGHCDNLSGLCFCQDHTEGAHCQLCSPGYYGDPRAGGSCFR; listed as Homo sapiens)
8. PRT881 (AEGPCGERPCENGGICFLLDGHPTCDCSTTGYGGKLCS; listed as Homo sapiens)

Reply:
1: 50; 2: 12.5; 3: 50; 4: 12.5; 5: 12.5; 6: 25; 7: 12.5; 8: 25

Each of the following entries comes with a recorded value; kindly state MIC (μg/mL) M. catarrhalis for each.
1. PRT265 (CQDGHGGCSEHANCSQVGTMVTCTCLPDYEGDGWSC; listed as Homo sapiens)
2. PRT838 (GLQECSAYCGSHGTCASPLGPCRCEPGFLGRACD; listed as Homo sapiens)

Reply:
1: 25; 2: 12.5
